Quick list: MFI at 33.3 nM per entry.
target: T1, human CD28 (human, UniProt P10747 19-220); assay: flow cytometry on Jurkat cells (CD28)
T1 construct: Endogenous CD28 on Jurkat/IL2 reporter cells
outcomeMeasure: MFI at 33.3 nM

[[record]]
binder = "CD80 E35D/M47V/N48K/V68M/K89N IgV-Fc, (EAAAK)3 linker (Fc fusion, not shown: a dimerising Fc or GST) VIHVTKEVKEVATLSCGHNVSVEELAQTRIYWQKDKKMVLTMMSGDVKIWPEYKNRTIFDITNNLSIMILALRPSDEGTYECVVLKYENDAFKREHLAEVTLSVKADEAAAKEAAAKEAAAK"
outcomemeasure = "MFI at 33.3 nM"
endpointvalue = "1280 MFI"

[[record]]
binder = "CD80 E35D/D46V/M47L/V68M/L85Q/E88D IgV-Fc, EAAAK linker (Fc fusion, not shown: a dimerising Fc or GST) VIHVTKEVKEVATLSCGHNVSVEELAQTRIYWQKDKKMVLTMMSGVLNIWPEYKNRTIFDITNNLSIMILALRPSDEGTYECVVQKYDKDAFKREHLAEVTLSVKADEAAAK"
outcomemeasure = "MFI at 33.3 nM"
endpointvalue = "563 MFI"

[[record]]
binder = "CD80 E35D/M47V/N48K/V68M/K89N IgV-Fc, delta linker (Fc fusion, Fused directly to the Fc with no additional linker; also called E35D/M47V/N48K/V68M/K89N delta) VIHVTKEVKEVATLSCGHNVSVEELAQTRIYWQKDKKMVLTMMSGDVKIWPEYKNRTIFDITNNLSIMILALRPSDEGTYECVVLKYENDAFKREHLAEVTLSVKTHTCPPCPAPEAEGAPSVFLFPPKPKDTLMISRTPEVTCVVVDVSHEDPEVKFNWYVDGVEVHNAKTKPREEQYNSTYRVVSVLTVLHQDWLNGKEYKCKVSNKALPAPIEKTISKAKGQPREPQVYTLPPSREEMTKNQVSLTCLVKGFYPSDIAVEWESNGQPENNYKTTPPVLDSDGSFFLYSKLTVDKSRWQQGNVFSCSVMHEALHNHYTQKSLSLSPG"
outcomemeasure = "MFI at 33.3 nM"
endpointvalue = "4680 MFI"

[[record]]
binder = "CD80 E35D/D46V/M47L/V68M/L85Q/E88D IgV-Fc, delta linker (Fc fusion, Fused directly to the Fc with no additional linker; also called E35D/D46V/M47L/V68M/L85Q/E88D delta) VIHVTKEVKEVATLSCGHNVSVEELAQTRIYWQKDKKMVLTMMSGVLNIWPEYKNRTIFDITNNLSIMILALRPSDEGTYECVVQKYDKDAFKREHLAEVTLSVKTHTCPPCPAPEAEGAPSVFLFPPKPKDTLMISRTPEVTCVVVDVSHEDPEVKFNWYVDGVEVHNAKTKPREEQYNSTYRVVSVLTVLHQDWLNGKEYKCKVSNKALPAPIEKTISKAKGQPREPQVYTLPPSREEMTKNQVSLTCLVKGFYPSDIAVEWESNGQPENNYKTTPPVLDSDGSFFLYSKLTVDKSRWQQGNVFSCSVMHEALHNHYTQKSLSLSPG"
outcomemeasure = "MFI at 33.3 nM"
endpointvalue = "4170 MFI"

[[record]]
binder = "wild-type CD80 IgV-Fc (inert) with GSG4S linker, Example 16 (Fc fusion, also called CD80 WT IgV-Fc) VIHVTKEVKEVATLSCGHNVSVEELAQTRIYWQKEKKMVLTMMSGDMNIWPEYKNRTIFDITNNLSIVILALRPSDEGTYECVVLKYEKDAFKREHLAEVTLSVKADGSGGGGSEPKSSDKTHTCPPCPAPEAEGAPSVFLFPPKPKDTLMISRTPEVTCVVVDVSHEDPEVKFNWYVDGVEVHNAKTKPREEQYNSTYRVVSVLTVLHQDWLNGKEYKCKVSNKALPAPIEKTISKAKGQPREPQVYTLPPSREEMTKNQVSLTCLVKGFYPSDIAVEWESNGQPENNYKTTPPVLDSDGSFFLYSKLTVDKSRWQQGNVFSCSVMHEALHNHYTQKSLSLSPG"
outcomemeasure = "MFI at 33.3 nM"
endpointvalue = "56 MFI"


Measured values drawn from patent US20210130436A1 for this set.
